molecular target: Cannabinoid receptor 2 (Homo sapiens)
Sequence (P34972 whole entry): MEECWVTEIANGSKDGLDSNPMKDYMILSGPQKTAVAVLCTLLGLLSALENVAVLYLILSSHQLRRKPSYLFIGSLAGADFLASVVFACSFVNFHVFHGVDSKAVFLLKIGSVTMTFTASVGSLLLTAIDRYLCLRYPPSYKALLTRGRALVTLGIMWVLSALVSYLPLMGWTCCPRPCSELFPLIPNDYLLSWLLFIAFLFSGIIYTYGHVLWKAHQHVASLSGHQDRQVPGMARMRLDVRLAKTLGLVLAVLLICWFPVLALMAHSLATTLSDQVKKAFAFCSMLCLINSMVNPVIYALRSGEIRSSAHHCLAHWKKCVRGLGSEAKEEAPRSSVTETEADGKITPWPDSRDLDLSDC
recorded endpoint: pKi
Reminder that pKi is minus the log10 of a molar concentration.

Looking for the measured pKi of Cc1c(CCN2CCOCC2)c2cc(OCC[18F])ccc2n1C(=O)c1cccc(Cl)c1Cl , can you help?
7.57

----------
assay: Metabolic stability in NMRI mouse brain at 6 MBq/ml, iv after 30 mins by HPLC analysis; type: ADME, organism-based; conditions: read-out: Stability
recorded endpoint: remaining at 0.5 h (%)
Quick reminder: number only, in %, skip the unit.

Looking for the measured remaining at 0.5 h of Cc1c(CCN2CCOCC2)c2cc(OCC[18F])ccc2n1C(=O)c1cccc(Cl)c1Cl , can you help?
48
